molecular target: T1, SARS-CoV-2 spike receptor-binding domain, recombinant (SARS-CoV-2, reference sequence, UniProt P0DTC2); test: ELISA
T1 construct: also called RBD; source: bought: Sino Biologicals, baculovirus-insect cells
Consider the following binders; for each one, report its OD450.

What value of OD450 has been reported for the following binder? FJ 10B (antibody, V domains shown, source: HEK293T, transfected; culture supernatant or purified) VH: QVQLVQSGAEVKKPGESLRISCKGSGYSFTSYWISWVRQMPGKGLEWMGRIDPSDSYTNYSPSFQGHVTISADKSISTAYLQWSSLKASDTAMYYCARLDPRYGPDYYGMDVWGQGTTVTVSS VL: AIRMTQSPSSLSASVGDRVTITCRASQSISSYLNWYQQKPGKAPKLLIHAASSLQSGVPSRFSGSGSGTDFTLTMSSLQPEDFATYYCQQSYSTPLTFGGGTKVEIR
1.22 OD450

Requested field: OD450. Item: FN 12A (antibody, V domains shown, source: HEK293T, transfected; culture supernatant or purified) VH: QVQLVQSGAEVKKPGSSVKVSCKASGGTFSSYAISWVRQAPGQGLEWMGRIIPILGIANYAQKFQGRVTITADKSTSTAYMELSSLRSEDTAVYYCARSGCSSTSCPSNLYYYYYGMDVWGQGTTVTVSS VL: QSVLTQPPSVSAAPGQKVTISCSGSSSNIGNNYVSWYQQLPGTAPKLLIYDNNKRPSGIPDRFSGSKSGTSATLGITGLQTGDEADYYCGTWDSSLSALVFGGGTKLTVL
1.33 OD450
